These entries and their values trace back to paper PMC8982737.

# measurement description: in vivo
# cond: female, cynomolgus monkey, po
attribute measured: bioavailability (%)
// return numeric value only (unit: %, not printed)

The compound `Cn1cnc(Cn2c(=O)[nH]/c(=N\c3cc4cn(C)nc4cc3Cl)n(Cc3cc(F)c(F)cc3F)c2=O)n1` showed bioavailability equal to 106

====

# measurement description: Monkey PK study
# cond: female, cynomolgus monkey, in vivo, iv, 0.1 mg/kg, t1/2, monkey, intravenous 0.1 mg/0.2 mL/kg, n = 2, nonfasted
attribute measured: half-life (h)
Express the result in h but write the number alone.

// field: half-life; key: Cn1cnc(Cn2c(=O)[nH]/c(=N\c3cc4cn(C)nc4cc3Cl)n(Cc3cc(F)c(F)cc3F)c2=O)n1 [Compound 3] ; value = 10
